Source of measurements: patent US20250263489A1

Fluorescence intensity (0.1 nM) (RLU), PathHunter: recorded values
# TARGET_OF_ASSAY: IGF-1 receptor on the cells of the PathHunter IGF1R Functional Assay (DiscoverX) (UniProt P08069 31-1367)
# Sequence (P08069 31-1367): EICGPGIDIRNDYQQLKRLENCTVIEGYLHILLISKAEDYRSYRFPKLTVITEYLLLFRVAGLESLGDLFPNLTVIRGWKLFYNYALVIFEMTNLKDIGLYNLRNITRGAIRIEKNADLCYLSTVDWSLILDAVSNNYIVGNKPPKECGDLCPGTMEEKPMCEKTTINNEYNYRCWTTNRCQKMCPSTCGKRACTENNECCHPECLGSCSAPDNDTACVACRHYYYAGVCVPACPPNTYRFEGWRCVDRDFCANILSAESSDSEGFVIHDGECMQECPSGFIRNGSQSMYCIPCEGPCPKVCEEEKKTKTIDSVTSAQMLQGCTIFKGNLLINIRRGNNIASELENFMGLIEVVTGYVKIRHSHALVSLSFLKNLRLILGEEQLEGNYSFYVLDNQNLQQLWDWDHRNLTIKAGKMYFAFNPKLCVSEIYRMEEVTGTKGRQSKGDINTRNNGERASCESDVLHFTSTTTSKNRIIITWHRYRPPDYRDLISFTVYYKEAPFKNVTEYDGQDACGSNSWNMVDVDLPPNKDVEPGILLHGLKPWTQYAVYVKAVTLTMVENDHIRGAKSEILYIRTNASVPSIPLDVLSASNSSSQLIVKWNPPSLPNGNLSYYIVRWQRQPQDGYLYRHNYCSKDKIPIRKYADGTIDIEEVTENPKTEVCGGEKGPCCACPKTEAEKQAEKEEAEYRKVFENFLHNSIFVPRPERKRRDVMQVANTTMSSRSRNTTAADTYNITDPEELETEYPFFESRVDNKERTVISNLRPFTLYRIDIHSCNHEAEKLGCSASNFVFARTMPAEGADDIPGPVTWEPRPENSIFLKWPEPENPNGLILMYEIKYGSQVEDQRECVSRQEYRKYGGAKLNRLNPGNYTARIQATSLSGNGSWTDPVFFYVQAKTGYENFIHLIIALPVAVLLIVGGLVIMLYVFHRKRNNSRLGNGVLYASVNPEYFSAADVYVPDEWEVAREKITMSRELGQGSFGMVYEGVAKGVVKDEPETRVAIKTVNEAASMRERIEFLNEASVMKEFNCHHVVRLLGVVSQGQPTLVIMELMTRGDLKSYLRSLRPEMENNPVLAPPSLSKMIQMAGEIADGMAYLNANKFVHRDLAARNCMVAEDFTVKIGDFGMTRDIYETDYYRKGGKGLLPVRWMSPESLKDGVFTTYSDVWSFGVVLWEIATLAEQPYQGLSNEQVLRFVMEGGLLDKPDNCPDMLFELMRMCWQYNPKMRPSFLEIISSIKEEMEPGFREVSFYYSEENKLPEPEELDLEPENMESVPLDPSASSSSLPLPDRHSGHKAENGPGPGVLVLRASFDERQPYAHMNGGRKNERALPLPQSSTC
# PROCEDURE_TEXT: cell-based or functional assay
The reply should be a number in RLU, with the unit left off.

Some entries whose results are on file:
INSERT INTO measurements (binder, quantity_unit, measured_result) VALUES
  ('FW1_var14_NEKS (antibody, human IgG4, V domains shown) VH: QVQLVQSGAEVKKPGASVKVSCKASGYTFTSYWMHWVRQAPGQGLEWMGETNPSNSVTNYNEKFKSRVTLTVDTSTSTAYMELSSLRSEDTATYYCTIGRGRGFAYWGQGTLVTVSS VL: DIQMTQSPSSVSASVGDRVTITCRASQNINFWLSWYQQKPGKAPRLLIYKASNLHTGVPSRFSGSGSGTDFTLTISSLQPEDFATYYCLQGQSYPYTFGGGTKLEIK', 'RLU', 221),
  ('mouse parent antibody IGF11-16 (antibody, mouse IgG1, kappa, V domains shown) VH: QIQLQQPGAELVKPGASVKLSCKAPGYTFTSYWMHWVKQRPGQGLEWIGETNPSNSVTNYNEKFKSKATLTVDKSSSTAYMQLSSLTSEDSAVYYCTIGRGRGFAYWGQGTLVTVSA VL: DIQMNQSPSSLSASLGDTITITCRASQNINFWLSWCQQKPGNIPKLLIYKASNLHTGVPSRFSGSGSGTDFTLTISSLQPEDIATYYCLQGQSYPYTFGGGTKLEIKR', 'RLU', 230),
  ('FW1_var1 antibody (antibody, V domains shown) VH: QVQLVQSGAEVKKPGASVKVSCKASGYTFTSYWMHWVRQAPGQGLEWMGETNPSNSVTNYAQKFQGRVTLTVDTSTSTAYMELSSLRSEDTAVYYCTIGRGRGFAYWGQGTLVTVSS VL: DIQMTQSPSSVSASVGDRVTITCRASQNINFWLSWCQQKPGKIPKLLIYKASNLHTGVPSRFSGSGSGTDFTLTISSLQPEDFATYYCLQGQSYPYTFGGGTKLEIK', 'RLU', 209);

Now let's try a different one.
Query: Supply recorded Fluorescence intensity (0.1 nM) (RLU), PathHunter for FW1_var10_NEKS (antibody, human IgG4, V domains shown) VH: QVQLVQSGAEVKKPGASVKVSCKASGYTFTSYWMHWVRQAPGQGLEWMGETNPSNSVTNYNEKFKSRVTLTVDTSTSTAYMELSSLRSEDTATYYCTIGRGRGFAYWGQGTLVTVSS VL: DIQMTQSPSSVSASVGDRVTITCRASQNINFWLSWYQQKPGKAPKLLIYKASNLHTGVPSRFSGSGSGTDFTLTISSLQPEDFATYYCLQGQSYPYTFGGGTKLEIK here.
Reply: 223
